Sourced from patent US20170224836A1

# EXPERIMENTAL TARGET: T1, human CDH6 on cells (human, UniProt P55285 54-790)
# T1 sequence: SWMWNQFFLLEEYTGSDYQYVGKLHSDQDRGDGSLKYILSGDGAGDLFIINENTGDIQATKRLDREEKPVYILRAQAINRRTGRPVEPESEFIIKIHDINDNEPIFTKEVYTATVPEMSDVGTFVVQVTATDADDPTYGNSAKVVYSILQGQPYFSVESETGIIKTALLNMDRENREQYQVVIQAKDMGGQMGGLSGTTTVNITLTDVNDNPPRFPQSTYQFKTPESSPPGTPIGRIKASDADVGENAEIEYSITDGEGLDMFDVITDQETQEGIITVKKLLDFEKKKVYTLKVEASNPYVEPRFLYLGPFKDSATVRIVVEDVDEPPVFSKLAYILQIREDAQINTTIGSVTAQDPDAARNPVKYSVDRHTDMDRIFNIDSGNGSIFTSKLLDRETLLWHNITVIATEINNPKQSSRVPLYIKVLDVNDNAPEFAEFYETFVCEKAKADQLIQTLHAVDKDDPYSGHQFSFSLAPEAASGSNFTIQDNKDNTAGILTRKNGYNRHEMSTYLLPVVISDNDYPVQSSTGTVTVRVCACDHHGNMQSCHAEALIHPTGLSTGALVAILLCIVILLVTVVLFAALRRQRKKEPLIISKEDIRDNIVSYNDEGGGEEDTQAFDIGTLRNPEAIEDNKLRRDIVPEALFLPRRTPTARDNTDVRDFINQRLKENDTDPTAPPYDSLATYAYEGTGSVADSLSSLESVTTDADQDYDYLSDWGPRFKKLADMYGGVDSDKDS
# PROTOCOL SUMMARY: cell-based or functional assay
Recorded percent inhibition at 1.22 nM ADC, SNU8 cells, one value per entry.
The reply should be a number in %, with the unit left off.

NOV0674-SMCC-DM1 (antibody, human IgG1, lambda, V domains shown, SMCC-DM1 on primary amines, sites not stated) VH: QVQLLESGGGLVQPGGSLRLSCAASGFTFSSYAMTWVRQAPGKGLEWVSGISGGGSNTYYADSVKGRFTISRDNSKNTLYLQMNSLRAEDTAVYYCARGGGQYFDYWGQGTLVTVSS VL: DIVLTQPPSVSGAPGQRVTISCSGSSSNIGYNYVSWYQQLPGTAPKLLIYRDNQRPSGVPDRFSGSKSGTSASLAITGLQAEDEADYYCAAWTSGSIGWVFGGGTKLTVLG = -1.42

Quick one: percent inhibition at 1.22 nM ADC, SNU8 cells of NOV0695-SMCC-DM1 (antibody, human IgG1, kappa, V domains shown, SMCC-DM1 on primary amines, sites not stated) VH: QVQLQQSGPGLVKPSQTLSLTCAISGDSVSSNSAAWNWIRQSPSRGLEWLGRIYYRSKWYNDYAVSVKSRITINPDTSKNQFSLQLNSVTPEDTAVYYCARERSYRDYFDYWGQGTLVTVSS VL: DIQMTQSPSSLSASVGDRVTITCRASQGIFTYLNWYQQKPGKAPKLLISAASTLQSGVPSRFSGSGSGTDFTLTISSLQPEDFATYYCQQYYSTSLTFGQGTKVEIKR ?
21.6
